# Subject of test: T1, polypeptide GC3pep (human)
# T1 construct: also called membrane proximal polypeptide GC3pep
# T1 peptide: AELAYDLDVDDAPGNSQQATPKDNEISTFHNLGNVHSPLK
# Assay explanation: ELISA, GC3pep coated, antibody 0.1 nM;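 note: antibody allowed to bind the coated plate 2 h at 37 °C, then detected via HRP-conjugated secondary antibody and TMB development for 10 min, stopped with HCl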
Please go through the items and note down their OD450 nm.
The figure you give is taken to be in OD450 nm; do not add the unit.

Ask: Please give measured OD450 nm of the following entry: F1.118.4 (antibody, human IgG1, kappa, V domains shown, human-murine chimeric antibody) VH: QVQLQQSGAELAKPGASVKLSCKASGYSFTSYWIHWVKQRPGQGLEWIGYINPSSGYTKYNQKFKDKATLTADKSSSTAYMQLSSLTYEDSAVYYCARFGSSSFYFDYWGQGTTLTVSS VL: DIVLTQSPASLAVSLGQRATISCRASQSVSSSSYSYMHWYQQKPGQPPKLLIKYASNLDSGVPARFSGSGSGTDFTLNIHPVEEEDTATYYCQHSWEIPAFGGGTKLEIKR
Result: 0.04

Ask: Please give measured OD450 nm of the following entry: F1.3.9 (antibody, human IgG1, kappa, V domains shown, human-murine chimeric antibody) VH: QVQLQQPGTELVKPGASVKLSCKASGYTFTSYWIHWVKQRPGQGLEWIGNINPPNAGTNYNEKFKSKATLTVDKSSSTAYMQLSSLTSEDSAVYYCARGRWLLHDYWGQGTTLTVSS VL: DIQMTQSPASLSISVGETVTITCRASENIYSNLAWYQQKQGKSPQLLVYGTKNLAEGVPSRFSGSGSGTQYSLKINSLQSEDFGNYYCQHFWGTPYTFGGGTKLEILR
Result: 0.05

Ask: Please give measured OD450 nm of the following entry: F1.42.8 (antibody, human IgG1, kappa, V domains shown, human-murine chimeric antibody) VH: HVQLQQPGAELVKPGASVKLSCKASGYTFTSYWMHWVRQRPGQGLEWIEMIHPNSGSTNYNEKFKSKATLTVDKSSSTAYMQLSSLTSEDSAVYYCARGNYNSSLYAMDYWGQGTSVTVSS VL: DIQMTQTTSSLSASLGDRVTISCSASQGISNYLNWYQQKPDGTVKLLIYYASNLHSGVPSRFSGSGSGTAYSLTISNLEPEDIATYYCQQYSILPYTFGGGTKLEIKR
Result: 0.05

Ask: Please give measured OD450 nm of the following entry: F3.81.19 (antibody, human IgG1, kappa, V domains shown, human-murine chimeric antibody) VH: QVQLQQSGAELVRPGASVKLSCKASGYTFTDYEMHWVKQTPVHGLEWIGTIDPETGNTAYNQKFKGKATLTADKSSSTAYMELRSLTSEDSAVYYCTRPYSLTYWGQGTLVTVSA VL: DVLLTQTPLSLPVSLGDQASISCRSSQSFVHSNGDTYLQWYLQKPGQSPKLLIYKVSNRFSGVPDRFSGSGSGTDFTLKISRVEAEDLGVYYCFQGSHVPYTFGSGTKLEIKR
Result: 0.19

Ask: Please give measured OD450 nm of the following entry: F1.153.1 (antibody, human IgG1, kappa, V domains shown, human-murine chimeric antibody) VH: QIQLVQSGPELKKPGETVKISCKASGYTFTTAGMQWVQKMPGKGFKWIGWINTHSGEPQYAEDFKGRFAFSLETSASTAYLQISNLKNEDTATYFCARSFYYHGSSFFYFDYWGQGTTLTVSS VL: DIVMTQSQKFMSTTVGDRVSITCKASQNVGTAVAWYQQKPGQSPKLLIYSASNRYTGVPDRFTGSGSGADFTLTISNMQSEDLADYFCQQYSRYPLTFGAGTKLELKR
Result: 0.05

Ask: Please give measured OD450 nm of the following entry: F1.115.8 (antibody, human IgG1, kappa, V domains shown, human-murine chimeric antibody) VH: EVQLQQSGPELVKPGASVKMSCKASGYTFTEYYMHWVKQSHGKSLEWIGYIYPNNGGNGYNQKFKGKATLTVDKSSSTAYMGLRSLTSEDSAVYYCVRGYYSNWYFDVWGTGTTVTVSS VL: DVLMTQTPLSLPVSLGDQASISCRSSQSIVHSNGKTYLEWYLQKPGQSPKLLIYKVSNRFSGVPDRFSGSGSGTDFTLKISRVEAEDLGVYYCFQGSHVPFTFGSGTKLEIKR
Result: 0.05

Ask: Please give measured OD450 nm of the following entry: F1.111.11 (antibody, human IgG1, kappa, V domains shown, human-murine chimeric antibody) VH: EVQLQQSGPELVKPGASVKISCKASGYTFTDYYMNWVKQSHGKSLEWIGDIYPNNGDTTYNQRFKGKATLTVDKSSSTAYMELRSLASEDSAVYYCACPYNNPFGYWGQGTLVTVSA VL: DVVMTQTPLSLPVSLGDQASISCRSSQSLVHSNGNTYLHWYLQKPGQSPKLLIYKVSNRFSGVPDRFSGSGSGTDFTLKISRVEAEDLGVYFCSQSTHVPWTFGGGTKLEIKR
Result: 0.06

Ask: Please give measured OD450 nm of the following entry: F1.41.17 (antibody, human IgG1, kappa, V domains shown, human-murine chimeric antibody) VH: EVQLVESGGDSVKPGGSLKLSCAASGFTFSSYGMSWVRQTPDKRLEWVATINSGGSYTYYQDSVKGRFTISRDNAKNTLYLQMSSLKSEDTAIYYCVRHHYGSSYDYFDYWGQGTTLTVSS VL: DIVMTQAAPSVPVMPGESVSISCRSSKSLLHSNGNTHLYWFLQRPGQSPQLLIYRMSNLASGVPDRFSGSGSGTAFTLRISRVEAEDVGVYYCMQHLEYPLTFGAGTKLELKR
Result: 0.05

Ask: Please give measured OD450 nm of the following entry: F1.136.7 (antibody, human IgG1, kappa, V domains shown, human-murine chimeric antibody) VH: EVQLQQSGPVMVKPGPSVKISCQTSGFTFTDYYIHWVKQSHGKSLEWIGLVFPYDGGTNYNQKFKDKATLTLDTSSSTAYMELNSLTSEDSAVYYCARAGGFSYALNYWGQGTSVTVSS VL: DIQMTQSPSSLSASLGGKVTITCKASQDINNYIAWYQHKPGKGPRLLIHFTSTLQPGIPSRFSGSGSGRDYSFSISNLEPEDIATYYCLQYDNLLLTFGAGTKLELKR
Result: 0.04

Ask: Please give measured OD450 nm of the following entry: F2.154.1 (antibody, human IgG1, kappa, V domains shown, human-murine chimeric antibody) VH: QVQLQQSGAELVRPGASVKLSCKASGYRFTDYEMHWVKQTPVHGLEWIGTIDPETGNTAYTQKFMDKATLTADKSSSTAYMELRSLTSEDSAVYYCTRGYSFTYWGQGTLATVSA VL: DVLMTQTPLSLPVSLGDQASISCRSSQNIVHSNGNTYLQWYLQKPGQSPKLLIFKVSNRFSGVPDRFSGSGSGTDFTLKISRVEAEDLGVYYCFQGSHVPFTFGTGTKLEIKR
Result: 1.13
